Listing of entries alongside the reported max activation.
# target desc: Nuclear receptor subfamily 1 group I member 2 (Rattus norvegicus)
# assay protocol: Rat pregnane X receptor (rPXR) activation by small molecules, qHTS assay (AID 1346983); also: % is scaled to controls: 0 for no effect and ±100 for the full control effect; nearly all actives have a fitted effect of over 20% in size
# test conditions: rPXR luciferase reporter cells, One-Glo luminescence, 24 h; hits give high values
Results filed as inconclusive are left out.
// return numeric value only (unit: %, not printed)

Record excerpt, results attached:
Measured max activation, CC[C@H]1OC(=O)C[C@@H](O)[C@H](C)[C@@H](O[C@@H]2O[C@H](C)[C@@H](O[C@H]3C[C@@](C)(O)[C@@H](O)[C@H](C)O3)[C@H](N(C)C)[C@H]2O)[C@@H](CC=O)C[C@@H](C)C(=O)/C=C/C(C)=C/[C@@H]1CO[C@@H]1O[C@H](C)[C@@H](O)[C@@H](OC)[C@H]1OC : 0.133

In plain terms, C=CC1=C(C(=O)O)N2C(=O)[C@@H](NC(=O)/C(=N\O)c3csc(N)n3)[C@H]2SC1 (stereo in doubt) has a documented max activation of -3.55

According to the records, this compound O=c1[nH]c(=O)n([C@H]2C[C@H](O)[C@@H](CO)O2)cc1/C=C/Br displays max activation of -6.99

Recorded max activation (compound N[C@H](CO)C(=O)O ): -0.898

The reported max activation of the compound CCCOC(=O)c1ccccc1O was -4.53

Continuing:
For this compound ( CN(C/C=C/c1ccccc1)Cc1cccc2ccccc12 ), measured max activation is -2.12

The recorded max activation for entry Cc1c(N)nc([C@H](CC(N)=O)NC[C@H](N)C(N)=O)nc1C(=O)N[C@H](C(=O)N[C@H](C)[C@@H](O)[C@H](C)C(=O)N[C@H](C(=O)NCCc1nc(-c2nc(C(=O)NCCCCN=C(N)N)cs2)cs1)[C@@H](C)O)[C@@H](O[C@@H]1O[C@@H](CO)[C@@H](O)[C@H](O)[C@@H]1O[C@H]1O[C@H](CO)[C@@H](O)[C@H](OC(N)=O)[C@@H]1O)c1cnc[nH]1 equals -0.9

// CCC(O)c1ccccc1 (stereo not drawn) : max activation value = -2.74

---

# assay protocol: qHTS assay to test for compound auto fluorescence at 590 nm (red) in HEK293 cells (AID 720679); also: % is scaled to controls: 0 for no effect and ±100 for the full control effect
# test conditions: red autofluorescence 540/590 nm; series mostly up to 46 µM
Active and inactive are the calls of the source. The call rests on the fitted dose curve; in most records, active means well fitted curve in the direction sought with a large enough effect in the repeat runs; inconclusive means weak or mixed curves; inactive means flat fitted curve, though single readings scatter.
outcome measure: outcome

Briefly, outcome measured for CN[C@@H]1[C@@H](O[C@H]2O[C@H](CO)[C@@H](N)[C@H](O)[C@H]2O)O[C@H]2C[C@@H](N)[C@@H](O[C@H]3[C@H](O)[C@@H](O)[C@H](N)C[C@@H]3N)O[C@@H]2[C@@H]1O : inactive

The molecule identified as CSCCC(N)C(=O)O (stereo not drawn) registered its outcome at inactive

Just so you know, measured outcome for NCc1cccc(C2CCN(C(=O)c3ccc(C#Cc4ccccc4F)o3)CC2)c1 came out at inactive

Looking up C[N+](C)(C)CCOP(=O)(O)OP(=O)([O-])OC[C@H]1O[C@@H](n2ccc(N)nc2=O)[C@H](O)[C@@H]1O , I found its outcome recorded as inactive

Field outcome (entry CS(=O)(=O)c1ccc([C@@H](O)[C@@H](COC(=O)CN)NC(=O)C(Cl)Cl)cc1 ) reads inactive

outcome recorded for this molecule, O=C(O)c1cc(=O)c2c3nc4ccccc4oc-3cc(=O)c2[nH]1 , is inactive

Given item N=C(N)n1cccn1 , the value recorded as its outcome is inactive

Next molecule, outcome to be filled in.
Lookup result for C[C@@H]1C[C@H]2[C@@H]3C[C@H](F)C4=CC(=O)C=C[C@]4(C)[C@@]3(Cl)[C@@H](O)C[C@]2(C)[C@H]1C(=O)COC(=O)C(C)(C)C ; measured outcome: inactive

---

# assay protocol: A CellTox Green Cytotoxicity Assay to monitor cytotoxicity in HEK293 cells - 16 hour (AID 1224888); also: nearly all actives have a fitted effect of over 35% in size
# test conditions: CellTox Green fluorescence; series mostly up to 76.8 µM
Records with an inconclusive call do not appear. Active and inactive are the calls of the source. Calls come from the whole dose curve; as a rule, active = well fitted activation curve with a large enough effect in the repeat runs; inconclusive = weak or mixed curves; inactive = flat fitted curve, though single readings scatter.
Your response should consist of one outcome taken from 1 for active, 0 for inactive

Query: For CN1CCN(c2ccccc2/C=C2\SCCN(c3ccc(Cl)c(Cl)c3)C2=O)CC1 , which call appears in the assay record?
Result: 1

Query: # fetch the recorded call for S=C1NC=NC2N=CNC12 (stereo not drawn) here
Result: 0

Query: Dear colleague, could you share the recorded outcome for CC1CCC(C(C)(C)O)CC1 (stereo not drawn) when you have a moment?
Result: 0

Query: What classification did CC(C=O)c1ccccc1 (stereo not drawn) end up with in this test?
Result: 0

Query: Please share the test call associated with CCOC(=O)OC(=O)OCC .
Result: 0

Query: Kindly provide the recorded test outcome for the following compound: C=CC(C)(C)O
Result: 0

Query: Please indicate how the test categorized Cc1cccc2c1ccc1ccccc12 .
Result: 0

Query: I'd appreciate the recorded outcome for C/C(=N\[Si](C)(C)C)O[Si](C)(C)C from this test.
Result: 0

Query: Name the outcome recorded for CCc1cccc(C)c1N(C(=O)CS(=O)(=O)O)C(C)COC (stereo not drawn) in the assay.
Result: 0

Query: Tell me the assay call for COc1cc(OC)nc(NC(=O)NS(=O)(=O)Nc2ccccc2C(=O)N(C)C)n1 please.
Result: 0

Query: Please let me know the test result on file for Cc1ccc(S(=O)(=O)C(I)I)cc1 .
Result: 1

Query: Lab log entry: C/C=C/C(=O)OCC(C)C — outcome as called in the assay?
Result: 0

Query: Test call, this compound: CC(C)c1ccc2sc3ccccc3c(=O)c2c1
Result: 0

Query: // param item: O=C1OC(=O)c2cc(-c3ccc4c(c3)C(=O)OC4=O)ccc21 ; yields the recorded call
Result: 0

Query: Lab log entry: Oc1ccc2c(c1)CCC2 — outcome as called in the assay?
Result: 0

Query: Test call for this compound, please: COCCC(=O)OC
Result: 0

Query: Test call, this compound: CCOC(=O)[C@H](O)[C@@H](O)C(=O)OCC
Result: 0

Query: Can you look up the reported call for CC(c1cc(C(C)(C)C)cc(C(C)(C)C)c1O)c1cc(C(C)(C)C)cc(C(C)(C)C)c1O for me?
Result: 0

Query: Record lookup: outcome of this test for CCCCCCCCSCc1cc(C)c(O)c(CSCCCCCCCC)c1 ?
Result: 0

---

# assay protocol: qHTS assay to identify small molecule antagonists of the androgen receptor (AR) signaling pathway using the MDA cell line - cell viability counter screen (AID 743041; also: nearly all actives have a fitted effect of over 45% in size)
# test conditions: MDA-kb2 viability, CellTiter-Fluor, 16 h, cells co-treated with R1881 androgen agonist; series mostly up to 70.3 µM
Inconclusive results are not listed. The source made the active and inactive calls. The call rests on the fitted dose curve; in most records, active means well fitted cell-killing curve with a large enough effect in the repeat runs; inconclusive means weak or mixed curves, or effect the other way; inactive means flat fitted curve, though single readings scatter.
Response enum: label 1 for active, label 0 for inactive

Query: How was CC1=C(/C=C/C(C)=C/C=C/C(C)=C\C(=O)O)C(C)(C)CCC1 classified in this test?
Result: label 0

Others:
Query: Name the outcome recorded for CCCCCCCCOC(=O)c1cc(O)c(O)c(O)c1 in the assay.
Result: label 1

Query: Outcome logged for CC1(C)S[C@@H]2[C@H](N3C(=O)C(c4ccccc4)NC3(C)C)C(=O)N2[C@H]1C(=O)O (stereo partly drawn) in this assay:
Result: label 0

---

# assay protocol: qHTS assay to identify small molecule antagonists of the estrogen related receptor signaling pathway with the pleiotropic PPARgamma coactivator (PGC) from Tox21 10K library - cell viability counter screen (AID 1224840); also: nearly all actives have a fitted effect of over 40% in size
# test conditions: PGC/ERR reporter cells viability, CellTiter-Fluor, 17.5 h; series mostly up to 92.4 µM
Results filed as inconclusive are left out. Active and inactive are the calls of the source. The call rests on the fitted dose curve; in most records, active means well fitted cell-killing curve with a large enough effect in the repeat runs (not every such curve was filed as active); inconclusive means weak or mixed curves, or effect the other way; inactive means no such curve, though single readings can be large or run the other way.
Field 'call' accepts active, inactive

Query: Record request — test call for c1ccc2occc2c1
Result: inactive

Query: Returns: the outcome recorded for N#Cc1nc(Cl)c(Cl)c(Cl)c1Cl in this assay.
Result: active

Query: What is the recorded call for this compound in the test? CN1CCN(C)CC1
Result: inactive

New cases:
Query: Recorded call for CO[Si](OC)(c1ccccc1)c1ccccc1 ?
Result: inactive

Query: recorded result category for CCCCCCCCSCc1cc(C)c(O)c(CSCCCCCCCC)c1 in this test
Result: inactive

Query: Returns: the outcome recorded for C=CC(C)(C)O in this assay.
Result: inactive

---

# assay protocol: qHTS assay to identify small molecule antagonists of the thyroid receptor (TR) signaling pathway - cell viability counter screen (AID 743064); also: nearly all actives have a fitted effect of over 50% in size; also: potency is read from the fitted curve at half-maximal effect
# test conditions: GH3.TRE-Luc viability, CellTiter-Fluor, 24 h; series mostly up to 70.3 µM
Inconclusive results are not listed. Active and inactive are the calls of the source. The call rests on the fitted dose curve; in most records, active means well fitted cell-killing curve with a large enough effect in the repeat runs; inconclusive means weak or mixed curves, or effect the other way; inactive means no such curve, though single readings can be large or run the other way.
outcome measure: Potency

See these solved cases before continuing.
Recorded result, CC(=O)[C@]1(O)Cc2c(O)c3c(c(O)c2[C@@H](O[C@H]2C[C@H](N)[C@H](O)[C@H](C)O2)C1)C(=O)c1ccccc1C3=O , Potency: 119 nM (active)

Kindly note the recorded Potency for O=S(=O)(O)CC(S)CS (stereo not given) , which is inactive

The compound listed as CCC(=O)OC(OP(=O)(CCCCc1ccccc1)CC(=O)N1C[C@H](C2CCCCC2)C[C@H]1C(=O)O)C(C)C (stereo not given in full) shows Potency equal to inactive

C[S+](CC[C@H](N)C(=O)O)C[C@H]1O[C@@H](n2cnc3c(N)ncnc32)[C@H](O)[C@@H]1O (stereo not given in full) has a reported Potency of inactive

Pending compound:
Looking up O=C1c2ccccc2CN2C(=O)c3ccccc3CN12 , I found its Potency recorded as inactive
